System: 388556-164-R-J1-PDC complex spheroid viability
ASSAY_DETAILS: Anticancer human tumor 388556-164-R-J1-PDC patient-derived colon adenocarcinoma cell line growth inhibition [RAS]
CONDITION_DESCRIPTION: second compound 0.3 µM; first compound 1 µM; hits give low values
MEASURED_QUANTITY: viability, T/C (%)
I only need the number, in %, no unit after it.

INSERT INTO assay_data (compound, recorded_measurement) VALUES
  ('NC1c2ccccc2OC12CCN(c1cnc3c(N4CCCc5ncccc54)n[nH]c3n1)CC2 (configuration not stated) + CCn1c(-c2cccnc2C(C)OC)c2c3cc(ccc31)N1CCOC(CC(NC(=O)C(C(C)C)N(C)C(=O)C3(F)CCN(C(=O)C#CC(C)(C)N(C)C)CC3)C(=O)N3CCCC(N3)C(=O)OCC(C)(C)C2)C1', 35.1);

Now look at this one.
get_value(item= CC(C)NCC(C(=O)N1CCN(c2ncnc3c2C(C)CC3O)CC1)c1ccc(Cl)cc1 (configuration not stated) + CCn1c(-c2cc(N3CCN(C)CC3)cnc2C(C)OC)c2c3cc(ccc31)-c1csc(n1)CC(NC(=O)C1CC1C)C(=O)N1CCCC(N1)C(=O)OCC(C)(C)C2 , readout=viability, T/C) returns 28.1

----------
Test system: 388556-164-R-J1-PDC complex spheroid viability
ASSAY_DETAILS: Anticancer human tumor 388556-164-R-J1-PDC cell line growth inhibition [RAS];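 further: spheroids exposed to compound for 7 days before readout; 100% = DMSO vehicle control luminescence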
CONDITION_DESCRIPTION: second compound 0.003 µM; first compound 0.01 µM; hits give low values
Quick rule for you: viability, T/C under 90% gets satisfied, anything else gets not satisfied.

Past entries and their recorded results:
INSERT INTO assay_data (compound, label_class) VALUES
  ('C=CC(=O)N1CCN(c2nc(OCC3CCCN3C)nc3c(F)c(-c4nc(N)cc(C)c4C(F)(F)F)c(Cl)cc23)C(C)C1 (stereo not given) + CCn1c(-c2cc(N3CCN(C)CC3)cnc2C(C)OC)c2c3cc(ccc31)-c1csc(n1)CC(NC(=O)C1CC1C)C(=O)N1CCCC(N1)C(=O)OCC(C)(C)C2', 'satisfied'),
  ('C=CC(=O)Nc1cc(Nc2nccc(-c3cn(C)c4ccccc34)n2)c(OC)cc1N(C)CCN(C)C + CCn1c(-c2cccnc2C(C)OC)c2c3cc(ccc31)N1CCOC(CC(NC(=O)C(C(C)C)N(C)C(=O)C3(F)CCN(C(=O)C#CC(C)(C)N(C)C)CC3)C(=O)N3CCCC(N3)C(=O)OCC(C)(C)C2)C1', 'not satisfied'),
  ('CCN1CCN(Cc2ccc(Nc3ncc(F)c(-c4cc(F)c5nc(C)n(C(C)C)c5c4)n3)nc2)CC1 + CCn1c(-c2cc(N3CCN(C)CC3)cnc2C(C)OC)c2c3cc(ccc31)-c1csc(n1)CC(NC(=O)C1CC1C)C(=O)N1CCCC(N1)C(=O)OCC(C)(C)C2', 'not satisfied'),
  ('CC(C)n1nc(-c2ccc3oc(N)nc3c2)c2c(N)ncnc21 + CCn1c(-c2cc(N3CCN(C)CC3)cnc2C(C)OC)c2c3cc(ccc31)-c1csc(n1)CC(NC(=O)C1CC1C)C(=O)N1CCCC(N1)C(=O)OCC(C)(C)C2', 'satisfied'),
  ('O=C(c1ccc(F)c(F)c1Nc1ccc(I)cc1F)N1CC(O)([C@@H]2CCCCN2)C1 + CCn1c(-c2cc(N3CCN(C)CC3)cnc2C(C)OC)c2c3cc(ccc31)-c1csc(n1)CC(NC(=O)C1CC1C)C(=O)N1CCCC(N1)C(=O)OCC(C)(C)C2', 'satisfied'),
  ('CC(C)n1nc(-c2ccc3oc(N)nc3c2)c2c(N)ncnc21 + CCn1c(-c2cccnc2C(C)OC)c2c3cc(ccc31)N1CCOC(CC(NC(=O)C(C(C)C)N(C)C(=O)C3(F)CCN(C(=O)C#CC(C)(C)N(C)C)CC3)C(=O)N3CCCC(N3)C(=O)OCC(C)(C)C2)C1', 'satisfied');

Does this compound meet the criterion viability, T/C < 90%? O=C(c1ccc(F)c(F)c1Nc1ccc(I)cc1F)N1CC(O)([C@@H]2CCCCN2)C1 + CCn1c(-c2cccnc2C(C)OC)c2c3cc(ccc31)N1CCOC(CC(NC(=O)C(C(C)C)N(C)C(=O)C3(F)CCN(C(=O)C#CC(C)(C)N(C)C)CC3)C(=O)N3CCCC(N3)C(=O)OCC(C)(C)C2)C1 not satisfied

State whether 90% exceeds viability, T/C recorded for Nc1ccn(C2OC(CO)C(O)C2(F)F)c(=O)n1 (stereo not given) + CCn1c(-c2cc(N3CCN(C)CC3)cnc2C(C)OC)c2c3cc(ccc31)-c1csc(n1)CC(NC(=O)C1CC1C)C(=O)N1CCCC(N1)C(=O)OCC(C)(C)C2 . satisfied
